System: TO-3-N3-2 (biotin conjugate)
METHOD NOTES: pull-down binding Z-score (relative to library population); higher = stronger binding
EXPERIMENTAL CONDITIONS: RNA library: Library-2
MEASURE: pull-down binding Z-score
Provide a numeric answer; units are not to be included.

Query :: Which pull-down binding Z-score value belongs to GCCCUUAUAGGGC [IAV_invivo_NA_6_Motif_5+IAV_invivo_NA_6_Motif_5] ?
Result :: -0.38

Query :: GGAGAAGACUUUUCCUUUCCUCC [hsa-mir-4660] ?
Result :: -0.212

Query :: Lookup `UCUCUAAUGAGA`
Result :: -0.652

Query :: Repeat for the following sequence: UUUUGACAUUACUUUCAAAGACAAAA [hsa-mir-548f-1]
Result :: -0.214

Query :: What about this sequence? UGACGAUGCUGUUGUGUGUUUCAAUAGCACUUAUGCAUCUCA [SHAPE_invitro_SARS-CoV-2_Motif_289]
Result :: -0.0833

Query :: Quick one: `UCUAAAUGAAACUCUUGUUACAAUGCCACUUGGCUAUGUAACACAUGGCUUAAAUUUGGA`
Result :: -0.364

Query :: # iterate: CCAAGGCUCUGGGGUCUCACCCUUGG [hsa-mir-6842]
Result :: -0.394

Query :: And then `GAGGGGUGUAUACUGCUGCCGUGAACAUGAGCAUGAAAUUGCUUGGUACACGGAACGUUCUGAAAAGAGCUAUGAAUUGCAGACACCUUUU` , what is it?
Result :: -0.11

Query :: Check GUUAGUUGUGGACACAUACUAAC [hsa-mir-3912] too.
Result :: -0.735

Query :: # iterate: `AGUACACCUUUGAAAAAGGUGACU`
Result :: -0.572

====

Provide the reported pull-down binding Z-score of each item.
Test system: G-clamp-N3 (biotin conjugate)
METHOD NOTES: pull-down binding Z-score (relative to library population); higher = stronger binding
EXPERIMENTAL CONDITIONS: RNA library: Library-1 (pre-miRNA loops + repeats)
The reply should be a number, written without any unit.

Query :: Consider the sequence shown here: GCUUUUCACCUGUGAUCCCAGGAGAGGAAGC [hsa-mir-646] What is its recorded pull-down binding Z-score?
Result :: -0.741

Query :: Likewise for GCAGGCCGUGAACUCGUCGAGCUGCGCGUGCGGCCGGUGCUCA [hsa-mir-1199] ?
Result :: 0.693

Query :: Another sequence to check: UUUUGUCUGA [hsa-mir-553]
Result :: -1.4

Query :: Next up: CCAAGGUUGUGCUUUUAGGAAAUGUUGGCUGUCCUGCGG [hsa-mir-5739]
Result :: 0.485

Query :: What do you get for CUGCUCUCCCUGGCAGCAAG [hsa-mir-7109] ?
Result :: 1.5

Query :: Ok, now UGCUGAUGUCAUCAGUCAUAACUUCUGCG [hsa-mir-6854]
Result :: -0.983

Query :: Similarly, AAGCAGGGUUGGGCCUGGUU [hsa-mir-7641-1] ?
Result :: -1.23

Query :: Query UCGAGAGGUCAGAGGAUUGCUCCUGA [hsa-mir-5585] next
Result :: 3.56

Query :: Also, AAAUUGCAGACACUAGGACCAUGUCUUGGUUUUUGCAAUAAUG [hsa-mir-1248] please.
Result :: 0.0385

Query :: How about CCAAGGCUCUGGGGUCUCACCCUUGG [hsa-mir-6842] ?
Result :: 0.754

Query :: What would you report for UCUCAAAAUAAUUCUGCAGUGAGA [hsa-mir-4524b] ?
Result :: 2.26

FYI, the data here is from the supplement of paper PMC11865577.
